Recorded values, source PubChem BioAssay AID1918991.

Test system: 186277-243-T-J2-PDC complex spheroid growth;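 further: luminescent signal used as a stand-in for viable cell amount; spheroids exposed to compounds for seven days before the viability read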
Test: Anticancer human tumor 186277-243-T-J2-PDC patient-derived colon adenocarcinoma cell line growth inhibition [AhR]; active means viability on the fitted dose curve at most 10% of control; inactive means the rest
Settings: second compound 0.1 µM; first compound 3.16 µM
Output constraint: value belongs to active, inactive

The examples below pair each entry with its known result.
molecule	classAssignment
NS(=O)(=O)OCC1CC(n2ccc3c(NC4CCc5ccccc54)ncnc32)CC1O (configuration not stated) + CC(CO)NC(=O)c1cc(-c2ccc(Cl)cc2)nn(-c2cnn(C)c2)c1=O	active
Nc1ccccc1NC(=O)c1ccc(CNC(=O)OCc2cccnc2)cc1 + Cc1cncc(-c2nc(NCCc3c[nH]c4ccccc34)c3ncn(C(C)C)c3n2)c1	inactive
O=C(C=Cc1cccc(S(=O)(=O)Nc2ccccc2)c1)NO + Cc1ccccc1N=Nc1ccc(NC(=O)c2ccnn2C)c(C)c1	inactive

Req: Could you please tell me the result logged for CC1(C)CCC(CN2CCN(c3ccc(C(=O)NS(=O)(=O)c4ccc(NCC5CCOCC5)c([N+](=O)[O-])c4)c(Oc4cnc5[nH]ccc5c4)c3)CC2)=C(c2ccc(Cl)cc2)C1 + Cc1ccccc1N=Nc1ccc(NC(=O)c2ccnn2C)c(C)c1 in this assay?
Resp: inactive

Req: In this assay, the call recorded for CC(C)c1c(-c2ccccc2)nc2c(C#N)c[nH]n2c1=O + Cc1ccccc1N=Nc1ccc(NC(=O)c2ccnn2C)c(C)c1 was what?
Resp: inactive

Req: Hi, do you know how COc1ccc([C@@H](O)c2cc(-c3ncnc4cc(N5CCOCC5)ccc34)c(F)cc2Cl)nn1 + CC(CO)NC(=O)c1cc(-c2ccc(Cl)cc2)nn(-c2cnn(C)c2)c1=O came out in this test?
Resp: inactive

Req: Short answer needed: outcome of this test for COc1cc(Nc2ncc3c(n2)-c2ccc(Cl)cc2C(c2c(F)cccc2OC)=NC3)ccc1C(=O)O + CC(CO)NC(=O)c1cc(-c2ccc(Cl)cc2)nn(-c2cnn(C)c2)c1=O ?
Resp: inactive

Req: How was COc1cc(C2c3cc4c(cc3C(OC3OC5COC(C)OC5C(O)C3O)C3COC(=O)C23)OCO4)cc(OC)c1O (configuration not stated) + CC(CO)NC(=O)c1cc(-c2ccc(Cl)cc2)nn(-c2cnn(C)c2)c1=O classified in this test?
Resp: inactive
